molecular target: Nuclear receptor subfamily 1 group I member 2 (Rattus norvegicus); test: Rat pregnane X receptor (rPXR) activation by small molecules, qHTS assay (AID 1346983); settings: rPXR luciferase reporter cells, One-Glo luminescence, 24 h; hits give high values; further: on the % scale 0 is the no-effect control and ±100 the full control effect; nearly all actives have a fitted effect of over 20% in size
Results filed as inconclusive are left out.
Exercise: for every item that follows, state its recorded max activation.
Numbers only, in %.

| Molecule | Quantity unit | max activation |
| --- | --- | --- |
| Clc1ccc(C(c2ccc(Cl)cc2)C(Cl)(Cl)Cl)cc1 | % | 8.77 |

// batch mode: one max activation value per listed entry
1. C[C@@H]1O[C@@H](O[C@@H]2C=C3CC[C@@H]4[C@H](CC[C@]5(C)[C@@H](c6ccc(=O)oc6)CC[C@]45O)[C@@]3(C)CC2)[C@H](O)[C@H](O)[C@H]1O
2. CC[C@H](C)[C@H]1O[C@]2(C=C[C@@H]1C)C[C@@H]1C[C@@H](C/C=C(\C)[C@@H](O[C@H]3C[C@H](OC)[C@@H](O[C@H]4C[C@H](OC)[C@@H](O)[C@H](C)O4)[C@H](C)O3)[C@@H](C)/C=C/C=C3\CO[C@@H]4[C@H](O)C(C)=C[C@@H](C(=O)O1)[C@]34O)O2
3. O=c1oc2ccccc2c(O)c1Cc1c(O)c2ccccc2oc1=O
4. CCCCCCCCCCCCCCCC[N+](C)(C)C
5. Cc1c(Cl)c(=O)oc2cc(OP(=O)(OCCCl)OCCCl)ccc12
6. COc1cc(N)c(Cl)cc1C(=O)NC1CN2CCC1CC2 (stereo not drawn)
7. Clc1ccc(CSC(Cn2ccnc2)c2ccc(Cl)cc2Cl)cc1 (stereo not drawn)

Result:
1: -3.43; 2: -15.3; 3: -3.67; 4: -8.83; 5: 8.02; 6: -2.4; 7: 11.4

* * *

target: Acetylcholinesterase (Homo sapiens); assay: Acetylcholinesterase (AChE) small molecule antagonists: colormetric cell-based qHTS assay (AID 1347395); settings: SH-SY5Y cells AChE activity, colorimetric (Ellman); series mostly up to 115 µM; further: nearly all actives have a fitted effect of over 30% in size
Records with an inconclusive call do not appear. Calls of active or inactive are those of the source. Calls come from the whole dose curve.
// classify into active, inactive

Take a look at these entries with their results.
| Molecule | Label value |
| --- | --- |
| O=[N+]([O-])c1cc(C(F)(F)F)c(Cl)c([N+](=O)[O-])c1Cl | inactive |
| COP(=O)(OC)SCn1c(=O)oc2cc(Cl)cnc21 | active |
| [Hg+2].[I-].[I-] | inactive |
| BrC(Br)C(Br)(Br)Br | inactive |
| O=C(CBr)c1ccc(O)cc1 | inactive |
| CC(C)Oc1cccc(NC(=O)c2ccccc2C(F)(F)F)c1 | inactive |

Now let's try a different one.
Ask: Recorded test call requested for `Cl/C=C\CCl`
Result: inactive

* * *

Assay: qHTS assay to identify small molecule agonists of the estrogen receptor beta (ER-beta) signaling pathway - cell viability counter screen (AID 1259380); further: nearly all actives have a fitted effect of over 30% in size
Conditions: ER-beta-bla HEK293T viability, CellTiter-Glo luminescence, 16 h; series mostly up to 92.4 µM
From the text: National Center for Advancing Translational Sciences [NCATS] NIH Chemical Genomics Center [NCGC] U.S. Environmental Protection Agency [EPA] National Institutes of Environmental Health Sciences [NIEHS] National Toxicology Program [NTP] U.S. Food and Drug Administration [FDA] Estrogen receptor (ER), a nuclear hormone receptor, plays an important role in development, metabolic homeostasis and reproduction. […]
Inconclusive results are not listed. Calls of active or inactive are those of the source. The call rests on the fitted dose curve; in most records, active means well fitted cell-killing curve with a large enough effect in the repeat runs; inconclusive means weak or mixed curves, or effect the other way; inactive means flat fitted curve, though single readings scatter.
API: response.call in true for active, false for inactive

| Compound | Label value |
| --- | --- |
| CC(=O)[O-].CC(=O)[O-].O.O.[Cd+2] | true |

Ask: Hi team, can someone confirm the assay call for `CCc1cc(C)cc(CC)c1-c1c(OC(=O)C(C)(C)C)n2n(c1=O)CCOCC2` ?
Result: false

Ask: Hi team, can someone confirm the assay call for `N#Cc1ccccc1N` ?
Result: false

Ask: Tell me the assay call for `ClC1=C(Cl)[C@]2(Cl)[C@@H]3[C@@H](Cl)[C@@H](Cl)C[C@@H]3[C@@]1(Cl)C2(Cl)Cl` please.
Result: false

Ask: I'd appreciate the recorded outcome for `CN(C)C(=S)[S-].CN(C)C(=S)[S-].[Cu+2]` from this test.
Result: true

Ask: Record lookup: outcome of this test for `[Hg+2].[I-].[I-]` ?
Result: true
